Assay: Metabolic stability in rat S9 hepatic fractions with and without NADPH
Assay type: in vitro ADME
Details: rat, liver S9 hepatic fractions, CLINT (intrinsic clearance), rat S9, +NADPH
VALUE KIND: CLint scaled at 1 h

Qu. Sample Cc1csc(NC(=O)c2cc(C(F)c3cncnc3)cc3cccnc23)n1 (stereo not shown) — what was its CLint scaled at 1 h?
Ans. 199 mL/min/kg

----------
Assay: Metabolic stability in human S9 hepatic fractions with and without NADPH
Assay type: in vitro ADME
Details: human, liver S9 hepatic fractions, CLINT (intrinsic clearance), human S9, −NADPH
VALUE KIND: CLint scaled at 1 h (mL/min/kg)
Answers are plain numbers, in mL/min/kg.

Qu. Sample Cc1csc(NC(=O)c2cc(C(F)c3cncnc3)cc3cccnc23)n1 (stereo not shown) [Compound 21] — what was its CLint scaled at 1 h?
Ans. 31.3

----------
Assay: Metabolic stability in rat S9 hepatic fractions with and without NADPH
Format: in vitro ADME
Details: rat, liver S9 hepatic fractions, CLINT (intrinsic clearance), rat S9, −NADPH
VALUE KIND: CLint scaled at 1 h
In your response, the unit should come after the numeric value.

Qu. Sample Cc1csc(NC(=O)c2cc(C(F)c3cncnc3)cc3cccnc23)n1 (stereo not shown) — what was its CLint scaled at 1 h?
Ans. 34.7 mL/min/kg

----------
Test: Metabolic stability in human S9 hepatic fractions with and without NADPH
Format: in vitro ADME
Conditions: human, liver S9 hepatic fractions, CLINT (intrinsic clearance), human S9, +NADPH
VALUE KIND: CLint scaled at 1 h (mL/min/kg)
Give bare numbers, in mL/min/kg.

Qu. Sample Cc1csc(NC(=O)c2cc(C(F)c3cncnc3)cc3cccnc23)n1 (stereo not shown) — what was its CLint scaled at 1 h?
Ans. 98.2

The origin of these recorded values is paper PMC6142812.
